- Test system: style-specific S RNase of Fuji apple
- ASSAY_COMMENT: Inhibition of the activity of a style-specific S RNase by the agents
- Assay type: biochemical
- STATED_CONDITIONS: optical density at 260 nm (A260), agent 2.0 mM, no treatment 1.10
MEASURED_PROPERTY: OD (2.0 mM)

Q) Quote OD (2.0 mM) reported for C=C(C)C(=O)[O-].C=C(C)C(=O)[O-].[Zn+2] [Zn(II) metacrylate] please.
A) 0.70

Q) Quote OD (2.0 mM) reported for COCCOC(C)C(=O)[O-].COCCOC(C)C(=O)[O-].[Zn+2] (stereo not shown) [Zn(II) 2-(2-methoxyethoxy)propionate, Zn(II) 2-(2-methoxyethoxy) propionate] please.
A) 0.61

Q) Quote OD (2.0 mM) reported for CCC(=O)[O-].CCC(=O)[O-].[Zn+2] [Zn(II) Propionate] please.
A) 0.69

Q) Quote OD (2.0 mM) reported for CCOCC(=O)[O-].CCOCC(=O)[O-].[Cu+2] [Cu(II) ethoxyacetate] please.
A) 0.72

Q) Quote OD (2.0 mM) reported for CC(=O)[O-].CC(=O)[O-].[Zn+2] [Zn(II) Acetate] please.
A) 0.71

Q) Quote OD (2.0 mM) reported for O=C[O-].O=C[O-].[Zn+2] [Zn(II) Formate] please.
A) 0.75

Q) Quote OD (2.0 mM) reported for COCCOCC(=O)[O-].COCCOCC(=O)[O-].[Cu+2] [Cu(II) 2-methoxyethoxyacetate] please.
A) 0.65

Values from patent US20050032646A1
